Test: Cytotoxicity in mock infected MES-1 cells (MTT)
Assay type: cell-based
Conditions: mock infected MES-1 cells, Table 3A
Protocol: To determine the cytotoxicity, cells were seeded at an initial density of 1×10^6 cells/mL in 96 well plates containing Minimum Essential Medium with Earles's salts (MEM-E), L-glutamine, 1 mM sodium pyruvate and 25 mg/L kanamycin, supplemented with 10% fetal bovine serum. Cell cultures were then incubated at 37° C. in a humidified 5% CO2 atmosphere in the absence or presence of serial dilutions of test compounds. Cell viability was determined by the MTT method.
result.type: CC50 at 3 days

{"compound": "CC(C)[C@H](N)C(=O)O[C@@H]1[C@@H](CO)O[C@@H](n2ccc(N)nc2=O)[C@]1(C)O [drawing 252]", "result.type": "CC50 at 3 days", "measured.value": "> 100 µM"}

For every listed record, write down its CC50 at 3 days.
1. CNc1nc(N)nc2c1ncn2[C@@H]1O[C@H](CO[P@](=O)(N[C@@H](C)C(=O)OC(C)C)Oc2ccccc2)[C@@H](O)[C@@]1(C)F [drawing 247]
2. CCC(CC)COC(=O)[C@H](C)N[P@](=O)(OC[C@H]1O[C@@](C#N)(c2ccc3c(N)ncnn23)[C@H](O)[C@@H]1O)Oc1ccccc1 [drawing 251]

["> 100 µM", "> 100 µM"]
